Listed next: entries and their corresponding abundance fitness.
B1: Far upstream element-binding protein 1, residues 98 to 169; numbered along this chain, Q96AE4 (parent)
chain: RSVMTEEYKVPDGMVGFIIGRGGEQISRIQQESGCKIQIAPDSGGLPERSCMLTGTPESVQSAKRLLDQIVE

variants of: B1; assay: abundance fitness (aPCA) (normalised: wild type 0, dead -1); higher = more abundant; growth selection in yeast, the domain comes from the species named; conditions: Homo sapiens

{"columns": ["polymer_sequence", "abundance fitness"],
 "data": [
  ["RSVMTEEYKVPDGMVGFIIGRGGEQISRIQQESGCQIQIAPDSGGLPERSCMLTGTPESVQSAKRLLDQIVE [K36Q]", -0.04],
  ["RSVMTEEYKVPDGMVGFIIGRGGEQISRIQQESGCKIQIAPDSGGLSERSCMLTGTPESVQSAKRLLDQIVE [P47S]", -0.014],
  ["RSVMTEEYKVPDGMVGFIIGRGGEQISRIQQESGCKIQIAPDSGGLPERSCMLTGTPESVFSAKRLLDQIVE [Q61F]", -0.031],
  ["RSVMTQEYKVPDGMVGFIIGRGGEQISRIQQESGCKIQIAPDSGGLPERSCMLTGTPESVQSAKRLLDQIVE [E6Q]", 0.054],
  ["RSVMTEEYKVADGMVGFIIGRGGEQISRIQQESGCKIQIAPDSGGLPERSCMLTGTPESVQSAKRLLDQIVE [P11A]", -0.081],
  ["RSVMTEEYKVPDPMVGFIIGRGGEQISRIQQESGCKIQIAPDSGGLPERSCMLTGTPESVQSAKRLLDQIVE [G13P]", -0.019],
  ["RSVMTEEYKVPDGMVGFYIGRGGEQISRIQQESGCKIQIAPDSGGLPERSCMLTGTPESVQSAKRLLDQIVE [I18Y]", -0.21],
  ["RSVMTEEYKVPDGMVGFIIGRGGEQISRIQQESGCKIQIAPDSGGLPERSCMLTGTPESVQNAKRLLDQIVE [S62N]", -0.005],
  ["RSVMTEEYKMPDGMVGFIIGRGGEQISRIQQESGCKIQIAPDSGGLPERSCMLTGTPESVQSAKRLLDQIVE [V10M]", 0.008],
  ["RSVMTEEYKVPDGMVGFIIGRGGEQISRIQQESGCKIQIAPDSGGLPERSCMLTGTEESVQSAKRLLDQIVE [P57E]", -0.008],
  ["RSVMTEEYKVPDGMVGFIIGRGGEQISRIQQESGCKIQIAPDSGGLPERSCMLTGTPESVQSAKRLCDQIVE [L67C]", -0.161],
  ["RSVMTEEYKVPDGMVGFIIGRGGEQISVIQQESGCKIQIAPDSGGLPERSCMLTGTPESVQSAKRLLDQIVE [R28V]", -0.108],
  ["RSVMTEEYKVPDGMVGFIHGRGGEQISRIQQESGCKIQIAPDSGGLPERSCMLTGTPESVQSAKRLLDQIVE [I19H]", -0.06],
  ["RSVMTEEYKVPDGMVGFIIGRGGENISRIQQESGCKIQIAPDSGGLPERSCMLTGTPESVQSAKRLLDQIVE [Q25N]", -0.107],
  ["VSVMTEEYKVPDGMVGFIIGRGGEQISRIQQESGCKIQIAPDSGGLPERSCMLTGTPESVQSAKRLLDQIVE [R1V]", -0.035],
  ["RSVMTEEYKVPDGMVGFIIGRGGEQISRIQQESGCKIQIAPDSGGLPERSCMLTGTGESVQSAKRLLDQIVE [P57G]", -0.025],
  ["RSVMTEEYKVPDGMVGFIIGRGGEQISRIQQESGCKIQIAPDSGGLPERSCMLTGTPESVQSAKPLLDQIVE [R65P]", -0.464],
  ["RSVMTEECKVPDGMVGFIIGRGGEQISRIQQESGCKIQIAPDSGGLPERSCMLTGTPESVQSAKRLLDQIVE [Y8C]", -0.297],
  ["RSVMTEEYKVPDGMVGFIIGRGGEQISRIQQESGCKIQIAPDSGGLPERSCMLTGTPEYVQSAKRLLDQIVE [S59Y]", -0.376],
  ["RSVMTEEYKVPDGMVGFIIGRGGEQISRIQQESGCKIQIAPDSGGLPERQCMLTGTPESVQSAKRLLDQIVE [S50Q]", -0.025],
  ["RSVMTEEYKVPDGMVGFIIGRGGEQISRIQQESGCKIQIAPDSGGLPERSCMLTGTPESVQSAKRLLCQIVE [D68C]", -0.065],
  ["RSVMTEEYKVPDGMVGFIIGRGGEQISRIQQESGCKIQIAPDSGGLPERSCMLTGTPESVQSAKRLLDWIVE [Q69W]", -0.274],
  ["RSVMTEEYKVPDGMVGFIIGRGGEQISRIQQMSGCKIQIAPDSGGLPERSCMLTGTPESVQSAKRLLDQIVE [E32M]", -0.067],
  ["RSVMTEEYKVPDGNVGFIIGRGGEQISRIQQESGCKIQIAPDSGGLPERSCMLTGTPESVQSAKRLLDQIVE [M14N]", -0.105],
  ["RSYMTEEYKVPDGMVGFIIGRGGEQISRIQQESGCKIQIAPDSGGLPERSCMLTGTPESVQSAKRLLDQIVE [V3Y]", 0.003],
  ["RSVMTEEYKVPDGMVGGIIGRGGEQISRIQQESGCKIQIAPDSGGLPERSCMLTGTPESVQSAKRLLDQIVE [F17G]", 0.04],
  ["RSVMTEEYKVPDGMVGFIIGRGGEQISRIQQESGCKIYIAPDSGGLPERSCMLTGTPESVQSAKRLLDQIVE [Q38Y]", -0.138],
  ["RSVMTEEYKVPDGMVGFIIGRGGEQIDRIQQESGCKIQIAPDSGGLPERSCMLTGTPESVQSAKRLLDQIVE [S27D]", -0.046],
  ["RSVMTEEYKVPDGMVGFIIGRGGEQISRIQQESLCKIQIAPDSGGLPERSCMLTGTPESVQSAKRLLDQIVE [G34L]", -0.147],
  ["RSVMTEEYKEPDGMVGFIIGRGGEQISRIQQESGCKIQIAPDSGGLPERSCMLTGTPESVQSAKRLLDQIVE [V10E]", -0.628],
  ["RSVMTEEYKVPDGMVGFIIGRGGEQISRIQQESGCKIQAAPDSGGLPERSCMLTGTPESVQSAKRLLDQIVE [I39A]", -0.252],
  ["RSVMTEEYKVPDGMVGFIIGRGGEQISRIQQESGCKIQIAPDSGGLPERSCMLEGTPESVQSAKRLLDQIVE [T54E]", -0.028],
  ["RSVMTEEYKVPDGMVGFIIGRGGEQISRIQQESGCKIQIAPDSGGLPEISCMLTGTPESVQSAKRLLDQIVE [R49I]", -0.133],
  ["RSVMTEEYKVPDGMVGFIIGRGGEQISRIQQESGCKIQIAPDSGHLPERSCMLTGTPESVQSAKRLLDQIVE [G45H]", -0.163],
  ["RSVMTEEYKVPDGMVGFIIGRGGEQISRHQQESGCKIQIAPDSGGLPERSCMLTGTPESVQSAKRLLDQIVE [I29H]", -0.423],
  ["RSVMTCEYKVPDGMVGFIIGRGGEQISRIQQESGCKIQIAPDSGGLPERSCMLTGTPESVQSAKRLLDQIVE [E6C]", -0.085],
  ["RSVMTEEYKVPDGMVGFIIGRGGEQISRIQQESGCKWQIAPDSGGLPERSCMLTGTPESVQSAKRLLDQIVE [I37W]", -0.933],
  ["RSVMTEEYKVPDGMVGFIIGRGGEQISCIQQESGCKIQIAPDSGGLPERSCMLTGTPESVQSAKRLLDQIVE [R28C]", -0.109],
  ["RSVMTEEYKVPDGMVGFIIGRGGEQISRIQQESGCKIQIAPDSGGLPERSCPLTGTPESVQSAKRLLDQIVE [M52P]", -0.625],
  ["RSVMTEEYKVPDGMVGFIIGRGGEQISRIQQESGCKIQIAPDSGGLPERSCYLTGTPESVQSAKRLLDQIVE [M52Y]", -0.012],
  ["RSMMTEEYKVPDGMVGFIIGRGGEQISRIQQESGCKIQIAPDSGGLPERSCMLTGTPESVQSAKRLLDQIVE [V3M]", 0.017],
  ["RSVMTEEYKVPDGMVGFIIGRGGEQISRIQQESGCKIQIVPDSGGLPERSCMLTGTPESVQSAKRLLDQIVE [A40V]", -0.089],
  ["RSVMTEEYKVPDLMVGFIIGRGGEQISRIQQESGCKIQIAPDSGGLPERSCMLTGTPESVQSAKRLLDQIVE [G13L]", -0.079],
  ["RSVMTEEYKVPDGMVGFIIGRGGEQISRIQQESGCKIQIARDSGGLPERSCMLTGTPESVQSAKRLLDQIVE [P41R]", -0.031],
  ["RSVMTEEHKVPDGMVGFIIGRGGEQISRIQQESGCKIQIAPDSGGLPERSCMLTGTPESVQSAKRLLDQIVE [Y8H]", 0.024],
  ["RSVMTEEYKVPDGMVGFIIGRGGEQISRIQQESGCKIQIAPDSGGLPERSCMLTGTPESVQSAKRLLDQIWE [V71W]", -0.094],
  ["RSVMTEEYKVPDGMVGFIIGRGGEQISRIQQESGCKIQIAPCSGGLPERSCMLTGTPESVQSAKRLLDQIVE [D42C]", -0.015],
  ["RSVMTEEYKVPDGMVGFIIGRYGEQISRIQQESGCKIQIAPDSGGLPERSCMLTGTPESVQSAKRLLDQIVE [G22Y]", -0.137],
  ["RSVMTEEYKVPDGMVGFIIGRGGEQISRIQQESGCKIQIAPDSGGLPERSCMLTGTPESVQSKKRLLDQIVE [A63K]", -1.04],
  ["RSVMTEEYKVPDGMVGFIYGRGGEQISRIQQESGCKIQIAPDSGGLPERSCMLTGTPESVQSAKRLLDQIVE [I19Y]", -0.068],
  ["RSVMTEEYKVPDGMVGFIIGRGGEQISRIQQESGCKIQIAPDSGGLPERSCMLPGTPESVQSAKRLLDQIVE [T54P]", -1.23],
  ["RSVMTEEYKVPDGMVGFIIGRGGEQISRIQQESGCKIQIQPDSGGLPERSCMLTGTPESVQSAKRLLDQIVE [A40Q]", -0.045],
  ["RSVMTEEYKVPDGMVGYIIGRGGEQISRIQQESGCKIQIAPDSGGLPERSCMLTGTPESVQSAKRLLDQIVE [F17Y]", -0.019],
  ["RSVMTEEYKVPKGMVGFIIGRGGEQISRIQQESGCKIQIAPDSGGLPERSCMLTGTPESVQSAKRLLDQIVE [D12K]", -0.068],
  ["RSVMTEEYKVPDGMVGFIIGRGGEQISRIQQESGCKIQIAPDSGGLPERSVMLTGTPESVQSAKRLLDQIVE [C51V]", 0.006],
  ["RSVMTEEYKVPDGMVGFIIGRGGEQISRIQQESGCKIQIAPDSGGLPERSCMLTGTPESVQSSKRLLDQIVE [A63S]", -0.261],
  ["RSVMTEEYKVPDGMVGFIIGRGGEQISRIQQESGCKIQIAPSSGGLPERSCMLTGTPESVQSAKRLLDQIVE [D42S]", -0.024],
  ["RSVMTEEYKVPDGMVGFIIGRGAEQISRIQQESGCKIQIAPDSGGLPERSCMLTGTPESVQSAKRLLDQIVE [G23A]", -0.045],
  ["RSVMTEEYKVPDGMVGFIIGRGGEQISRIQQESGCKIQIAPDSPGLPERSCMLTGTPESVQSAKRLLDQIVE [G44P]", -0.061],
  ["RSVMTEEYKVPDGMVGFIIGRGGEQISRIQQESGCKIQIAPDSGGLPGRSCMLTGTPESVQSAKRLLDQIVE [E48G]", -0.045],
  ["RSVMTEEYKVPDGMVGFIIGRGGQQISRIQQESGCKIQIAPDSGGLPERSCMLTGTPESVQSAKRLLDQIVE [E24Q]", -0.084],
  ["RSVMTEEYKVPDGMVGFIIGRGGEQISRIQQESGCKIQIAPDSGGLPERSCMLTGTPEQVQSAKRLLDQIVE [S59Q]", -0.017],
  ["RSVMTEEYKVPDGMVGFIIGRGGEQISRIQQESGCKIQIAPDSGGLPERSCMLTGTPESVQRAKRLLDQIVE [S62R]", -0.017],
  ["RSVMTEEYKVPDGMVGFIIGRGGEQISRIQQESGCKIQIAPDSGGLPERSCMLTGTPEKVQSAKRLLDQIVE [S59K]", -0.046],
  ["RSVMTEEYKVPDGMVGFIIGRIGEQISRIQQESGCKIQIAPDSGGLPERSCMLTGTPESVQSAKRLLDQIVE [G22I]", -0.09],
  ["RSVMTEEYKVPDGMVGFIIGRLGEQISRIQQESGCKIQIAPDSGGLPERSCMLTGTPESVQSAKRLLDQIVE [G22L]", -0.099],
  ["RSVMTEEYKVPDGMVGFIIGRGGEQISRIQQESGCKIQIAPDSGGLPERSCMLTGTPEWVQSAKRLLDQIVE [S59W]", -0.754],
  ["RSVMTEEYKVPDGMVGFIIGRGGEQISRIQQESGCKIQIAPDSGGLPERSCMLTGTPESVQSAKRFLDQIVE [L66F]", -0.087],
  ["RSVMTEEYKVPDGMVGFIIGRGGEQISRIQQESGCKIQIAPDSGGLPERSCMLTGYPESVQSAKRLLDQIVE [T56Y]", -0.066],
  ["RSVMTEEYKVPDGMVGFIIGRGGEQISRIQQESGCKIQIAPDSGGLPERSCMLTGTPESVQSAKRLLDQICE [V71C]", -0.044],
  ["RSVMEEEYKVPDGMVGFIIGRGGEQISRIQQESGCKIQIAPDSGGLPERSCMLTGTPESVQSAKRLLDQIVE [T5E]", 0.009],
  ["RSVMTEEYKVPDGMVGFICGRGGEQISRIQQESGCKIQIAPDSGGLPERSCMLTGTPESVQSAKRLLDQIVE [I19C]", -0.001],
  ["RSVMTEEYKVPDGMVGFIIGRGGEQISRIQQFSGCKIQIAPDSGGLPERSCMLTGTPESVQSAKRLLDQIVE [E32F]", -0.208]
]}
